test system: bovine GPR7 (Bos taurus, UniProt Q8MJV3)
Construct: expressed in transfected cells; host or cells: CHO cells
Sequence (Q8MJV3 whole entry): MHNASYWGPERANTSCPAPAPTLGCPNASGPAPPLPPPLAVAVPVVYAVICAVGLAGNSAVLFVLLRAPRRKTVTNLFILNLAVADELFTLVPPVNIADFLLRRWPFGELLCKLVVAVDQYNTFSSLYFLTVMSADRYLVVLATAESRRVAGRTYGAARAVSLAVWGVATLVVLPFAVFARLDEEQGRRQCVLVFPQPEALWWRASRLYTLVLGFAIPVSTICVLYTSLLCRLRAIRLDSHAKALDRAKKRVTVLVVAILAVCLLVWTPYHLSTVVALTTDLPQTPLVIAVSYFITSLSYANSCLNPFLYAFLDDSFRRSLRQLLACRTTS
test: Intracellular cAMP production suppression activity on bovine GPR7-expressed CHO cells
Type: cell-based
experimental setup: forskolin-promoted cAMP production; receptor-expressed CHO cells; read-out: IC50 (nM) bovine GPR7, cAMP production inhibition
No end group written: not given here.
property measured: IC50 (nM)

residues	IC50 / nM
WYKPTAGQGYYSVGRAAGLLSGFHRSPYA [Trp1-bovine GPR7L(29)]	1.2
WYKPAAGSHHYSVGRAAGLLSSFHRFPST [Trp1-rat GPR7L(29)]	1.2

###

test system: GPR7 (Homo sapiens, UniProt P48145)
Sequence (P48145 1-328): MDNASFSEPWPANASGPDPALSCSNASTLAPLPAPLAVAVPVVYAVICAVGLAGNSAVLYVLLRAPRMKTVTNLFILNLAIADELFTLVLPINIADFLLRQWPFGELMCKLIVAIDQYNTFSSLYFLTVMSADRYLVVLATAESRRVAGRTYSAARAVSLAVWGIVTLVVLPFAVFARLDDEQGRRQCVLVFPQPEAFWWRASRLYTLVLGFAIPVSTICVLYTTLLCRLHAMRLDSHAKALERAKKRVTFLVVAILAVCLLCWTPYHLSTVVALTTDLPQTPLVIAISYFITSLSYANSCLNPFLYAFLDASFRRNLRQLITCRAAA
test: Intracellular cAMP production suppression activity on human GPR7-expressed CHO cells
Assay type: cell-based
Parameters: The synthetic primers were constructed so as to amplify the gene in the region to be translated to its receptor protein; expressed in transfected cells; host or cells: CHO cells, membrane fraction
experimental setup: forskolin-promoted cAMP production; receptor-expressed CHO cells; read-out: IC50 (nM) human GPR7, cAMP production inhibition
No end group written: not given here.
property measured: IC50 (nM)
Write the value in nM as a bare number.

Q: Can you look up the measured IC50 of WYKPAAGSHHYSVGRAAGLLSSFH [Trp1-rat GPR7L(24)] for me?
Result: 0.31
